Listed next: entries and their corresponding relative viability.
# System: SW 900
# PROCEDURE_TEXT: relative viability (nuclei count vs DMSO), 5 days (fraction); higher = more cells survive
# SETUP_CONDITIONS: first compound 0.1265 µM

{"COMPOUND": "C[C@@H]1CN(CC(=O)Nc2ccc3c(c2)Cc2cccc(-c4cc(=O)cc(N5CCOCC5)o4)c2S3)C[C@H](C)O1 + CC(=O)Nc1cccc(-n2c(=O)n(C3CC3)c(=O)c3c(Nc4ccc(I)cc4F)n(C)c(=O)c(C)c32)c1 [Trametinib] (partner 0.02 µM)", "relative viability": 0.696}
{"COMPOUND": "Clc1ccc(Nc2nnc(Cc3ccncc3)c3ccccc23)cc1 [Vatalanib] + O=C(CCCCCCC(=O)Nc1ccccc1)NO [Vorinostat] (partner 1 µM)", "relative viability": 0.549}
{"COMPOUND": "Clc1ccc(Nc2nnc(Cc3ccncc3)c3ccccc23)cc1 [Vatalanib] + CCNC(=O)c1noc(-c2cc(C(C)C)c(O)cc2O)c1-c1ccc(CN2CCOCC2)cc1 [Luminespib] (partner 0.01 µM)", "relative viability": 0.178}

* * *

# System: NCI-H2087
# PROCEDURE_TEXT: relative viability (nuclei count vs DMSO), 5 days (fraction); higher = more cells survive
# SETUP_CONDITIONS: first compound 8 µM
A collection of compounds and their measured relative viability

{"COMPOUND": "CCCCCCCCCCCC1=C(O)C(=O)C=C(O)C1=O [Embelin] + Nc1nc2[nH]cc(CCc3ccc(C(=O)N[C@@H](CCC(=O)O)C(=O)O)cc3)c2c(=O)[nH]1 [Pemetrexed] (partner 0.2 µM)", "relative viability": 0.646}
{"COMPOUND": "CCCCCCCCCCCC1=C(O)C(=O)C=C(O)C1=O [Embelin] + CS(=O)(=O)CCNCc1ccc(-c2ccc3ncnc(Nc4ccc(OCc5cccc(F)c5)c(Cl)c4)c3c2)o1 [Lapatinib] (partner 2 µM)", "relative viability": 1.23}
{"COMPOUND": "CCCCCCCCCCCC1=C(O)C(=O)C=C(O)C1=O [Embelin] + N=C(N)NC(=N)NCCc1ccccc1 [Phenformin] (partner 250 µM)", "relative viability": 0.479}
{"COMPOUND": "CCCCCCCCCCCC1=C(O)C(=O)C=C(O)C1=O [Embelin] + Cc1cc(Nc2cc(N3CCN(C)CC3)nc(Sc3ccc(NC(=O)C4CC4)cc3)n2)n[nH]1 [Tozasertib] (partner 0.1 µM)", "relative viability": 0.217}
{"COMPOUND": "CCCCCCCCCCCC1=C(O)C(=O)C=C(O)C1=O [Embelin] + CC1(C)CCC(c2ccc(Cl)cc2)=C(CN2CCN(c3ccc(C(=O)NS(=O)(=O)c4ccc(N[C@H](CCN5CCOCC5)CSc5ccccc5)c(S(=O)(=O)C(F)(F)F)c4)cc3)CC2)C1 [Navitoclax] (partner 0.5 µM)", "relative viability": 0.989}
{"COMPOUND": "CCCCCCCCCCCC1=C(O)C(=O)C=C(O)C1=O [Embelin] + Cc1nc(Nc2ncc(C(=O)Nc3c(C)cccc3Cl)s2)cc(N2CCN(CCO)CC2)n1 [Dasatinib] (partner 0.075 µM)", "relative viability": 0.913}

* * *

# Tested on: NCI-H1437
# PROCEDURE_TEXT: relative viability (nuclei count vs DMSO), 5 days (fraction); higher = more cells survive
# SETUP_CONDITIONS: first compound 0.3162 µM
Measured relative viability of individual entries

{"COMPOUND": "CC(C)Oc1cc(Nc2nc(N[C@@H](C)c3ccc(F)cn3)ncc2Cl)n[nH]1 [AZ23] + C[C@]1(O)C[C@@H](c2nc(-c3ccc4ccc(-c5ccccc5)nc4c3)c3c(N)nccn32)C1 [Linsitinib] (partner 1 µM)", "MEASUREMENT_TARGET": "NCI-H1437", "relative viability": 1.28}
{"COMPOUND": "CC(C)Oc1cc(Nc2nc(N[C@@H](C)c3ccc(F)cn3)ncc2Cl)n[nH]1 [AZ23] + CC(=O)c1c(C)c2cnc(Nc3ccc(N4CCNCC4)cn3)nc2n(C2CCCC2)c1=O [Palbociclib] (partner 0.5 µM)", "MEASUREMENT_TARGET": "NCI-H1437", "relative viability": 0.335}
{"COMPOUND": "CC(C)Oc1cc(Nc2nc(N[C@@H](C)c3ccc(F)cn3)ncc2Cl)n[nH]1 [AZ23] + CC(C)C[C@H](NC(=O)[C@H](Cc1ccccc1)NC(=O)c1cnccn1)B(O)O [Bortezomib] (partner 0.002 µM)", "MEASUREMENT_TARGET": "NCI-H1437", "relative viability": 0.569}
{"COMPOUND": "CC(C)Oc1cc(Nc2nc(N[C@@H](C)c3ccc(F)cn3)ncc2Cl)n[nH]1 [AZ23] + Cc1cc(Nc2cc(N3CCN(C)CC3)nc(Sc3ccc(NC(=O)C4CC4)cc3)n2)n[nH]1 [Tozasertib] (partner 0.1 µM)", "MEASUREMENT_TARGET": "NCI-H1437", "relative viability": 0.413}
{"COMPOUND": "CC(C)Oc1cc(Nc2nc(N[C@@H](C)c3ccc(F)cn3)ncc2Cl)n[nH]1 [AZ23] + Cc1nc(NC(=O)N2CCC[C@H]2C(N)=O)sc1-c1ccnc(C(C)(C)C(F)(F)F)c1 [Alpelisib] (partner 2 µM)", "MEASUREMENT_TARGET": "NCI-H1437", "relative viability": 1.06}
{"COMPOUND": "CC(C)Oc1cc(Nc2nc(N[C@@H](C)c3ccc(F)cn3)ncc2Cl)n[nH]1 [AZ23] + Nc1ncn([C@H]2C[C@H](O)[C@@H](CO)O2)c(=O)n1 [Decitabine] (partner 2 µM)", "MEASUREMENT_TARGET": "NCI-H1437", "relative viability": 0.56}
{"COMPOUND": "CC(C)Oc1cc(Nc2nc(N[C@@H](C)c3ccc(F)cn3)ncc2Cl)n[nH]1 [AZ23] + CC1(C)CCC(c2ccc(Cl)cc2)=C(CN2CCN(c3ccc(C(=O)NS(=O)(=O)c4ccc(N[C@H](CCN5CCOCC5)CSc5ccccc5)c(S(=O)(=O)C(F)(F)F)c4)cc3)CC2)C1 [Navitoclax] (partner 0.5 µM)", "MEASUREMENT_TARGET": "NCI-H1437", "relative viability": 1.13}
{"COMPOUND": "CC(C)Oc1cc(Nc2nc(N[C@@H](C)c3ccc(F)cn3)ncc2Cl)n[nH]1 [AZ23] + CS(=O)(=O)N1CCN(Cc2cc3nc(-c4cccc5[nH]ncc45)nc(N4CCOCC4)c3s2)CC1 [Pictilisib] (partner 1 µM)", "MEASUREMENT_TARGET": "NCI-H1437", "relative viability": 0.46}
{"COMPOUND": "CC(C)Oc1cc(Nc2nc(N[C@@H](C)c3ccc(F)cn3)ncc2Cl)n[nH]1 [AZ23] + N=C(N)NC(=N)NCCc1ccccc1 [Phenformin] (partner 250 µM)", "MEASUREMENT_TARGET": "NCI-H1437", "relative viability": 0.345}

The reported measurements were obtained from the supplement of paper PMC10307832.
